system: Escherichia coli; assay: Antimicrobial activity against Escherichia coli XL1-Blue [pBluescript 2 SK(+); assay type: functional
attribute.measured: MIC (mg/L)
Numeric answer only, unit mg/L assumed.

Prompt line: Reported MIC, molecule CN[C@@H]1[C@H](O[C@H]2[C@H](O[C@H]3[C@H](O)[C@@H](O)[C@H](N=C(N)N)[C@@H](O)[C@@H]3N=C(N)N)O[C@@H](C)[C@]2(O)C=O)O[C@@H](CO)[C@H](O)[C@H]1O : ____
Response line: 0.5

Next:
Prompt line: Reported MIC, molecule NC[C@H]1O[C@H](O[C@H]2[C@H](O)[C@@H](O[C@H]3O[C@H](CO)[C@@H](O)[C@H](N)[C@H]3O)[C@H](N)C[C@@H]2N)[C@H](N)C[C@@H]1O : ____
Response line: 0.06

Prompt line: Reported MIC, molecule CN[C@@H]1[C@@H](O[C@H]2O[C@H](CO)[C@@H](N)[C@H](O)[C@H]2O)OC2C[C@@H](N)[C@@H](O[C@H]3[C@H](O)[C@@H](O)[C@H](N)C[C@@H]3N)OC2[C@@H]1O (stereo partly specified) : ____
Response line: 2

Prompt line: Reported MIC, molecule NCC[C@H](O)C(=O)N[C@@H]1C[C@H](N)[C@@H](O[C@H]2O[C@H](CN)[C@@H](O)[C@H](O)[C@H]2O)[C@H](O)[C@H]1O[C@H]1O[C@H](CO)[C@@H](O)[C@H](N)[C@H]1O : ____
Response line: 0.5

Prompt line: Reported MIC, molecule NCC[C@H](O)C(=O)N[C@@H]1C[C@H](N)[C@@H](O[C@H]2O[C@H](CN)CC[C@H]2N)[C@H](O)[C@H]1O[C@H]1O[C@H](CO)[C@@H](O)[C@H](N)[C@H]1O : ____
Response line: 0.25

Prompt line: Reported MIC, molecule NC[C@@H]1O[C@H](O[C@H]2[C@@H](O)[C@H](O[C@@H]3[C@@H](O)[C@H](N)C[C@H](N)[C@H]3O[C@H]3O[C@H](CN)[C@@H](O)[C@H](O)[C@H]3N)O[C@@H]2CO)[C@H](N)[C@@H](O)[C@@H]1O : ____
Response line: 0.12

---

In this section, each of the compounds is paired with its reported log10 MIC.
test system: Pseudomonas aeruginosa; assay: Antimicrobial activity against Pseudomonas aeruginosa PA0905; format: functional
On a log10 scale: recorded MIC, unit µg/mL.

Worked examples follow.
Prompt line: Reported log10 MIC, compound NC[C@@H]1O[C@H](O[C@H]2[C@@H](O)[C@H](O[C@@H]3[C@@H](O)[C@H](N)C[C@H](N)[C@H]3O[C@H]3O[C@H](CN)[C@@H](O)[C@H](O)[C@H]3N)O[C@@H]2CO)[C@H](N)[C@@H](O)[C@@H]1O [FRAMYCETIN] : ____
Response line: 1.81

Prompt line: Reported log10 MIC, compound NC[C@H]1O[C@H](O[C@H]2[C@H](O)[C@@H](O[C@H]3O[C@H](CO)[C@@H](O)[C@H](N)[C@H]3O)[C@H](N)C[C@@H]2N)[C@H](N)C[C@@H]1O [TOBRAMYCIN] : ____
Response line: 2.41

Next:
Prompt line: Reported log10 MIC, compound CN[C@@H]1[C@H](O[C@H]2[C@H](O[C@H]3[C@H](O)[C@@H](O)[C@H](N=C(N)N)[C@@H](O)[C@@H]3N=C(N)N)O[C@@H](C)[C@]2(O)C=O)O[C@@H](CO)[C@H](O)[C@H]1O [STREPTOMYCIN] : ____
Response line: 2.11

Prompt line: Reported log10 MIC, compound CN[C@@H]1[C@@H](O[C@H]2O[C@H](CO)[C@@H](N)[C@H](O)[C@H]2O)OC2C[C@@H](N)[C@@H](O[C@H]3[C@H](O)[C@@H](O)[C@H](N)C[C@@H]3N)OC2[C@@H]1O (some centres not stated) [APRAMYCIN] : ____
Response line: 1.51

Prompt line: Reported log10 MIC, compound C[C@H]1[C@H](NC(=O)/C(=N\OC(C)(C)C(=O)O)c2csc(N)n2)C(=O)N1S(=O)(=O)O [AZTREONAM] : ____
Response line: 0.90

---

test system: Pseudomonas aeruginosa; test: Antimicrobial activity against Pseudomonas aeruginosa PA0905; assay type: functional
In this section, each of the compounds is paired with its reported MIC.

Worked examples follow.
Prompt line: Reported MIC, compound CO/N=C(\C(=O)N[C@@H]1C(=O)N2C(C(=O)[O-])=C(C[N+]3(C)CCCC3)CS[C@H]12)c1csc(N)n1 [CEFEPIME] : ____
Response line: > 256 µg/mL

Prompt line: Reported MIC, compound NCC[C@H](O)C(=O)N[C@@H]1C[C@H](N)[C@@H](O[C@H]2O[C@H](CN)[C@@H](O)[C@H](O)[C@H]2O)[C@H](O)[C@H]1O[C@H]1O[C@H](CO)[C@@H](O)[C@H](N)[C@H]1O [AMIKACIN] : ____
Response line: > 256 µg/mL

Prompt line: Reported MIC, compound C[C@@H](O)[C@H]1C(=O)N2C(C(=O)O)=C(S[C@@H]3CN[C@H](C(=O)N(C)C)C3)[C@H](C)[C@H]12 [MEROPENEM] : ____
Response line: > 32 µg/mL

Prompt line: Reported MIC, compound NCC[C@H](O)C(=O)N[C@@H]1C[C@H](N)[C@@H](O[C@H]2O[C@H](CN)CC[C@H]2N)[C@H](O)[C@H]1O[C@H]1O[C@H](CO)[C@@H](O)[C@H](N)[C@H]1O [ARBEKACIN] : ____
Response line: > 256 µg/mL

Prompt line: Reported MIC, compound C[C@@H](O)[C@H]1C(=O)N2C(C(=O)O)=C(SCCNC=N)C[C@H]12 [IMIPENEM ANHYDROUS] : ____
Response line: > 32 µg/mL

Prompt line: Reported MIC, compound CC(C)(O/N=C(\C(=O)N[C@@H]1C(=O)N2C(C(=O)[O-])=C(C[n+]3ccccc3)CS[C@H]12)c1csc(N)n1)C(=O)O [CEFTAZIDIME] : ____
Response line: > 256 µg/mL

Turning now to a further record.
Prompt line: Reported MIC, compound O=C(O)c1cn(C2CC2)c2cc(N3CCNCC3)c(F)cc2c1=O [CIPROFLOXACIN] : ____
Response line: > 32 µg/mL
